assay: self-splicing fitness, log relative to wild type (ln ratio); higher = more splicing; Tetrahymena group I intron in knt gene, E. coli kanamycin selection, DiMSum; sequences stand for … in CUCUCU…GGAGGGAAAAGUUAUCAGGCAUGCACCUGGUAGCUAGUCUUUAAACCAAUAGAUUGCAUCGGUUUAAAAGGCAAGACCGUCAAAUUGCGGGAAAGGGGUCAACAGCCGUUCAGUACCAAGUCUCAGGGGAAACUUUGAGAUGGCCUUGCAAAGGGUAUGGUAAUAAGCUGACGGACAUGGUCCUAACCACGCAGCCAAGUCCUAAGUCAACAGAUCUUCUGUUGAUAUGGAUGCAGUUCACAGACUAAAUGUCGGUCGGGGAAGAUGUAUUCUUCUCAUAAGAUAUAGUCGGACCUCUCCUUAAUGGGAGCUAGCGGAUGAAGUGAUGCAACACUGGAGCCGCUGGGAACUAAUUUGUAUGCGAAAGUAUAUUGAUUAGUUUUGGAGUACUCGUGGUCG; conditions: 37 °C;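 also: selection with 25 µg/mL kanamycin versus none on LB agar overnight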
Returns satisfied if the recorded self-splicing fitness (ln) is greater than or equal to -1, and not satisfied otherwise.

• UUAGAGCAAUAUUACGAAGA = satisfied
• UAGGAGCAAUAUUACGAAUU = not satisfied
• CAGCAGCAAUAUUACGGCCC = satisfied
• CGAGAGCAAUAUUACGGGUU = not satisfied
• GUACAGCAAUAUUACGCGAG = not satisfied
• UACCAGCAAUAUUACGGCAG = satisfied
• ACCUAGCAAUAUUACGGGCG = satisfied
• GAUCAGCAAUAUUACGAAGC = satisfied
• CAGUAGCAAUAUUACGUUCG = satisfied
• CGAGAGCAAUAUUACGGACA = not satisfied
• GAAGAGCAAUAUUACGCACG = not satisfied
• CUGCAGCAAUAUUACGCGGA = not satisfied
• CUGUAGCAAUAUUACGCACU = not satisfied
• AUGGAGCAAUAUUACGCUUC = not satisfied
• GCAUAGCAAUAUUACGCAAG = not satisfied
• UACCAGCAAUAUUACGUGAG = not satisfied
• AAUAAGCAAUAUUACGGCUU = satisfied
• ACGGAGCAAUAUUACGCACU = not satisfied
• UCCUAGCAAUAUUACGGUUA = not satisfied
• CCUAAGCAAUAUUACGCUAC = not satisfied
• GUGUAGCAAUAUUACGCACA = not satisfied
• CAGAAGCAAUAUUACGUUAU = not satisfied
• AGGAAGCAAUAUUACGAUAA = not satisfied
• AAGUAGCAAUAUUACGAAGU = not satisfied
• GGGAAGCAAUAUUACGUUGU = not satisfied
• AUCCAGCAAUAUUACGUACG = satisfied
• AUGCAGCAAUAUUACGUCUG = satisfied
• UCUCAGCAAUAUUACGCCUU = not satisfied
• GAAUAGCAAUAUUACGGAUG = not satisfied
• CUGCAGCAAUAUUACGCUGG = not satisfied
• UCACAGCAAUAUUACGUGAC = not satisfied
• UAAGAGCAAUAUUACGGUCU = not satisfied
• UCAAAGCAAUAUUACGGGGC = not satisfied
• GCCGAGCAAUAUUACGCGAA = not satisfied
• CGAGAGCAAUAUUACGUCAC = not satisfied
• UGGGAGCAAUAUUACGCCUA = not satisfied
• CUCGAGCAAUAUUACGUGUA = not satisfied
• CGGUAGCAAUAUUACGCCAG = not satisfied
• GUUGAGCAAUAUUACGUCUA = satisfied
• UAGUAGCAAUAUUACGGAAA = not satisfied
• GUGAAGCAAUAUUACGGUAC = satisfied
• GUAUAGCAAUAUUACGGUAC = not satisfied
• UGGCAGCAAUAUUACGAUGC = not satisfied
• UGCCAGCAAUAUUACGGGAA = satisfied
• UCAUAGCAAUAUUACGAAGG = not satisfied
• UUCUAGCAAUAUUACGACGA = satisfied
• UCCAAGCAAUAUUACGUGGA = not satisfied
• CCUAAGCAAUAUUACGUAGU = satisfied
• AGGUAGCAAUAUUACGUAAU = satisfied
• CCGGAGCAAUAUUACGAACA = not satisfied
• GGGUAGCAAUAUUACGACAC = satisfied
• GUGAAGCAAUAUUACGUGAC = not satisfied
• CAAAAGCAAUAUUACGGUGU = not satisfied
• GAACAGCAAUAUUACGUACA = satisfied
• CGUAAGCAAUAUUACGACAC = not satisfied
